Data provenance is paper PMC6736568.

Listed next: entries and their corresponding Hs18S ΔCT.
Test system: HCT-8 host cells (Hs18S)
Settings: primary screening at 10 uM, treated vs control
Where a name gives a salt, the structure may show the parent alone.
// keep it numeric: no unit symbol after the value

Challenge: Kindly indicate its recorded Hs18S ΔCT. Item: "C[C@]12CCC(=O)C[C@@H]1CC[C@@H]1[C@@H]2CC[C@]2(C)C(=O)CC[C@@H]12"
Response given: 0.00

Challenge: Kindly indicate its recorded Hs18S ΔCT. Item: "COc1cc(CNC(=O)CCCC/C=C/C(C)C)ccc1O"
Response given: 0.00

Challenge: Kindly indicate its recorded Hs18S ΔCT. Item: "O=c1ccc2cc(O)c(O)cc2o1"
Response given: 0.21

Challenge: Kindly indicate its recorded Hs18S ΔCT. Item: "COC(=O)[C@]1(C)CC[C@]2(C)CC[C@]3(C)C4=CC=C5C(=CC(=O)C(O)=C5C)[C@]4(C)CC[C@@]3(C)[C@@H]2C1"
Response given: 0.55

Challenge: Kindly indicate its recorded Hs18S ΔCT. Item: "Cc1coc2c1C(=O)C(=O)c1c-2ccc2c1CCCC2(C)C"
Response given: 0.08

Challenge: Kindly indicate its recorded Hs18S ΔCT. Item: C1CCN2C[C@@H]3C[C@@H](CN4CCCC[C@@H]34)[C@H]2C1 [SPARTEINE SULFATE]
Response given: 0.04

Challenge: Kindly indicate its recorded Hs18S ΔCT. Item: "CC(=O)Oc1ccc2c(C)cc(=O)oc2c1"
Response given: -0.06

Challenge: Kindly indicate its recorded Hs18S ΔCT. Item: CC1(C)CC2C1CC[C@]1(C)CCC3C(C(=O)O)CC(=O)O[C@@]32C1 (stereo partly drawn)
Response given: 0.49

Challenge: Kindly indicate its recorded Hs18S ΔCT. Item: "CC[C@H](CC[C@@H](C)[C@H]1CC[C@H]2[C@@H]3CC=C4C[C@@H](O)CC[C@]4(C)[C@H]3CC[C@]12C)C(C)C"
Response given: 0.43
